Hey, just so you know, these numbers are from patent US5061794A.

Tested on: E. cloacae 963
Test: in vitro antibacterial activity, agar plate dilution method (MIC)
Format: cell-based
Details: Enterobacter cloacae, 16 h; E. cloacae 963; 10^6 CFU/ml; read-out: Minimum Inhibitory Concentration (MIC)
Structures can show the parent of a compound that is named as a salt.
Recorded Endpoint: MIC (mg/L)
Numeric only. Scale: mg/L

For orientation, consider the following solved cases.
CO/N=C(\C(=O)N[C@@H]1C(=O)N2C(C(=O)O)=C(CSc3nnc(-c4ccc(O)cc4)s3)CS[C@H]12)c1csc(N)n1 [compound 7, reference compound]: 1.56
CON=C(C(=O)NC1C(=O)N2C(C(=O)O)=C(CSc3nc(C(=O)O)c(-c4ccc(O)c(O)c4)s3)CSC12)c1csc(N)n1 (centres unmarked): 0.1
CO/N=C(\C(=O)N[C@@H]1C(=O)N2C(C(=O)O)=C(CSc3nnc(-c4ccccc4)s3)CS[C@H]12)c1csc(N)n1 [compound 5, trifluoroacetate, reference compound]: 0.78
Nc1nc(/C(=N/OC(C(=O)O)c2ccccc2)C(=O)N[C@@H]2C(=O)N3C(C(=O)O)=C(CSc4nnc(-c5ccc(O)c(O)c5)o4)CS[C@H]23)cs1 (single isomer, unassigned): 0.1

Turning to the following molecule.
Lab note: measured MIC of CC(=O)Oc1ccc(-c2nc(SCC3=C(C(=O)O)N4C(=O)C(NC(=O)C(=NOC5(C(=O)O)CC5)c5csc(N)n5)C4SC3)sc2CC(=O)O)cc1OC(C)=O (centres unmarked) was 0.2
